test system: U251 CNS; test: NCI-60 one-dose screen, 48 h (100 = growth as untreated, 0 = no growth, -100 = all killed); conditions: 10 µM unless noted
The panel holds about 83,000 compounds, 20% with a hit somewhere; the sample as a whole holds those more often.
growth overview

| Compound | Value Unit | growth |
| --- | --- | --- |
| Brc1ccccc1Nc1ccc2nnc(-c3ccncc3)n2n1 | % | 102 |
| O=C1CN2CCC1C/C2=C\c1ccnc2c(Cl)cccc12 (centres undefined) | % | 98.4 |
| O=C(N/N=C(\CS(=O)(=O)c1ccccc1)c1cc2cc(Br)ccc2oc1=O)c1ccccc1 | % | 97.7 |
| CCOC(=O)c1cn2c3c(cc(F)cc3c1=O)C(CC)c1ccccc1C2 (centres undefined) | % | 83.8 |

----------
Test system: TK-10 renal
Experiment: NCI-60 one-dose screen, 48 h (100 = growth as untreated, 0 = no growth, -100 = all killed)
Details: 10 µM unless noted
Description: Growth inhibition of the TK-10 human tumor cell line is measured as a screen for anti-cancer activity. Cells are grown in 96 well plates and exposed to the test compound for 48 hours. Compounds are tested at a single concentration, which is 10^-5 M for most compounds. The reported endpoint is percent growth (GI% or GIPRCNT), where numbers from 0 - 100% represent growth inhibition, and numbers from -100% - 0 represent cell death. For example, a value of 40 represents 60% growth inhibition. […]
This is part of a sample that, as a whole, favours compounds with a hit. Of some 83,000 tested, about 20% had one in any assay.

| Structure As Smiles | Value Unit | growth |
| --- | --- | --- |
| Cc1cc(=O)[nH]n1-c1cc(Cl)ccc1N | % | 98.1 |
| COc1ccc(C2OCC(C)(C)CO2)cc1OC | % | 109 |
| CCN(CC)c1ccc2c(c1)OS(=O)(=O)N=C2 | % | 101 |
| COc1ccc(-c2csc3c2-n2cccc2C3=O)cc1O | % | 51.3 |

----------
test system: HCT-15 colon; assay: NCI-60 one-dose screen, 48 h (100 = growth as untreated, 0 = no growth, -100 = all killed); settings: 10 µM unless noted
About 83,000 compounds went through this panel and 20% of them were active in at least one assay; those are over-represented in the sample as a whole.
Listed here: items and their measured growth.
Measurement Type: growth (%)

| Compound | Measurement Type | Reported Value |
| --- | --- | --- |
| O=C1Nc2ccc(Cl)cc2/C1=N/N=C(c1ccccc1)c1ccccc1 | growth | 87.2 |
| COc1cc(C(F)(F)F)ccc1-c1cc(-c2ccc(F)cc2)n[nH]1 | growth | 73.3 |
| CCOC(=O)C1=C(C)N2C(=NC3=C(CCCC/C3=C\c3cc(OC)c(OC)c(OC)c3)C2c2cc(OC)c(OC)c(OC)c2)S1 (stereo unspecified) | growth | 44.8 |
| Cl.Fc1c[c-]c(-c2ccccn2)c(F)c1.[Pt].c1ccc([PH+](CC[PH+](c2ccccc2)c2ccccc2)c2ccccc2)cc1 | growth | -76.2 |
| Cc1ccc2c(c1)c(Sc1ccc(C(=O)NO)cc1)c1n2CN(C)CC1 | growth | 58.7 |
| COc1ccc(Sc2ccc3[nH]c(=O)nc(N)c3c2)cc1 | growth | 103 |
| CC1(C)CC(=O)C2=C(C1)Nc1cc3c(cc1C2c1ccc(F)cc1)OCO3 (stereo unspecified) | growth | 93.9 |
| COc1cc(/C=N/NC(=O)c2cnn3c2NC(c2ccccc2)C3)ccc1OC1CCCC1 (stereo unspecified) | growth | 24.6 |
| O=C(c1ccc2ncc(-c3nc(NC4CC4)ncc3F)n2c1)N1CCOCC1 | growth | 23.8 |
| COC(=O)c1c2c(c(C)[n+]([O-])c1C)C(=O)C=C(NCc1ccc(F)cc1)C2=O | growth | -60.5 |
| COc1cccc(Nc2nc(NCCO)c3ccccc3n2)c1 | growth | 88.6 |
| COc1ccc(/C=C/C(=O)N2CCC(O)CC2)cc1OC1CCCC1 | growth | 102 |
| COc1nc2c(cc1S(=O)(=O)c1ccccc1)CCc1c-2cnn1-c1cccc(Cl)c1 | growth | 71 |
| COc1cccc(OC(=O)c2ccccc2)c1OC(=O)c1ccccc1 | growth | 70.9 |
| COc1ccc(/C=C(\C#N)c2ccc(OC)cc2)cc1 | growth | 66.2 |
| COc1cccc(-c2ccc3c(c2)C2CCN(Cc4ccccc4)C3C2)c1 (stereo unspecified) | growth | 57.8 |
| COC(=O)c1c2c(c(C)[n+]([O-])c1C)C(=O)C=C(NCc1cccc(Cl)c1)C2=O | growth | -66.9 |
| COc1ccc(-c2cc(=O)oc3c4c(ccc23)OCN(Cc2ccc(F)cc2)C4)cc1 | growth | 64.3 |
| O=C(N/N=C/c1ccc(F)cc1)c1[nH]c2ccc(I)cc2c1-c1ccccc1 | growth | 18.7 |
| CC(C)(C)[Si](C)(C)OC1[C@@H](COC(N)=O)O[C@@H](n2cnc3c(N)ncnc32)[C@H]1O[Si](C)(C)C(C)(C)C (stereo partly specified) | growth | 88 |
| Cc1c(NCC(=O)Nc2nc3ccccc3[nH]2)c(=O)n(-c2ccccc2)n1C | growth | 94.5 |
| COc1cc(/C=N/NC(=O)c2cnn3c2NC(c2ccccc2)C3)cc(OC)c1OC (stereo unspecified) | growth | 37.7 |
| COc1nc2c(cc1S(=O)(=O)c1ccccc1)CCc1c-2cnn1-c1ccccc1 | growth | 59.8 |
| COc1cc(/C=C/C(=O)CC(=O)/C=C/c2cc(Br)c(OC)c(OC)c2)cc(Br)c1OC | growth | 109 |
| O=C(CCCCCCC(=O)Nc1ccc2c(c1)/C(=C/c1ccc[nH]1)C(=O)N2)NO | growth | 41.5 |
| COc1ccc(OC)c2ncccc12 | growth | 96.3 |
| O=C(C[Si](CC(=O)c1cccc(C(F)(F)F)c1)CC(=O)c1cccc(C(F)(F)F)c1)c1cccc(C(F)(F)F)c1 | growth | 99.1 |
| COc1nc2c(cc1S(=O)(=O)c1ccccc1)CCc1c-2cnn1-c1ccccc1Cl | growth | 51.5 |
| COc1c(Cl)ccc2c(-c3nc4cc(Cl)c(F)cc4s3)cc(=O)oc12 | growth | 82 |
| c1ccc(-c2n(Cc3ccc4ccccc4n3)c3ccccc3[n+]2Cc2ccc3ccccc3n2)cc1 | growth | 47.9 |
| CCN1CCN(c2nc3ccccc3c3c(=O)c4cc(F)ccc4sc23)CC1 | growth | 48.2 |
| CCCCNNC(=O)c1ccc(Br)cc1 | growth | 78.6 |
| COc1ccc(S(=O)(=O)c2ccc(C(N)=O)cc2)cc1NC(=O)c1[nH]c(C)c2c1CCCCC2=O | growth | 99.6 |
| CCN(C(=O)c1ccc2c3c(cccc13)C=C2)c1ccccc1 | growth | 88.7 |
| NC(=O)c1cc(I)ccc1NC(=O)COc1ccccc1 | growth | 20.1 |
| COC(=O)[C@H]1CCCN1C(=O)[C@H]1CCCN1C(=O)[C@@H](Cc1c[nH]c2ccccc12)NC(=S)Nc1cc(C(F)(F)F)cc(C(F)(F)F)c1 | growth | 55.5 |
